- assaySystem: UniProt:P23977
- Sequence (P23977 whole entry): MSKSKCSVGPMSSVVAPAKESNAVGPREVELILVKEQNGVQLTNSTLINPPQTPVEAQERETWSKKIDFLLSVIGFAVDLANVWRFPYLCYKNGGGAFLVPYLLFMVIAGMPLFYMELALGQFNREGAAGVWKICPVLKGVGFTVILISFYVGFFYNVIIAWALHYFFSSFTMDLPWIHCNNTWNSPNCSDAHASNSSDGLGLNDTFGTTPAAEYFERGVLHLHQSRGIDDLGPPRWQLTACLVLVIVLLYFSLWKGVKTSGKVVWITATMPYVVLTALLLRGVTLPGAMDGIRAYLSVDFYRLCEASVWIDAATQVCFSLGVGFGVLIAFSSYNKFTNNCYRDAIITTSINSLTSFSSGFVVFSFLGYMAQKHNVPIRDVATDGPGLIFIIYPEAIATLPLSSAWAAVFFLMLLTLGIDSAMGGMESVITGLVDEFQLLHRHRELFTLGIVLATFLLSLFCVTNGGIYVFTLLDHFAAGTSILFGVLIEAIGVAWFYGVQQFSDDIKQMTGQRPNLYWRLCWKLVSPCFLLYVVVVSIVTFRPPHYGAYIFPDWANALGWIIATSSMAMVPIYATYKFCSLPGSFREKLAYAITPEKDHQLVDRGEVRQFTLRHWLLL
- procedureText: Ability to displace [3H]WIN-35428 binding to dopamine transporter from rat striatal membranes
Threshold 500 nM. IC50 below it: Satisfied. IC50 at it or above: Not satisfied.

Prompt: Is it true that IC50 reported for CC(=O)OCC1CN(C)CC[C@@H]1c1ccc(Cl)cc1 (single isomer, unassigned) is less than 500 nM?
Completion: Satisfied

Prompt: Is it true that IC50 reported for CN1CC[C@H](c2ccc(Cl)cc2)C(CO)C1 (single isomer, unassigned; (-)-5) is less than 500 nM?
Completion: Satisfied

Prompt: Is it true that IC50 reported for COC(=O)[C@H]1CN(C)CC[C@@H]1c1ccc(Cl)cc1 (racemic) is less than 500 nM?
Completion: Satisfied

Prompt: Is it true that IC50 reported for CN1CC[C@@H](c2ccc(Cl)cc2)C(CO)C1 (some centres undefined) is less than 500 nM?
Completion: Satisfied

Prompt: Is it true that IC50 reported for CN1CC[C@H](c2ccc(Cl)cc2)C(CO)C1 (single isomer, unassigned; (+)-13) is less than 500 nM?
Completion: Satisfied

Prompt: Is it true that IC50 reported for CC(=O)OCC1CN(C)CC[C@H]1c1ccc(Cl)cc1 (some centres undefined) is less than 500 nM?
Completion: Not satisfied

Prompt: Is it true that IC50 reported for COC(=O)[C@H]1CN(C)CC[C@H]1c1ccc(Cl)cc1 is less than 500 nM?
Completion: Not satisfied

Prompt: Is it true that IC50 reported for CCCC1CN(C)CC[C@@H]1c1ccc(Cl)cc1 (single isomer, unassigned) is less than 500 nM?
Completion: Satisfied

Prompt: Is it true that IC50 reported for COC(=O)C1CN(C)CC[C@@H]1c1ccccc1 (some centres undefined) is less than 500 nM?
Completion: Not satisfied

###

- assaySystem: UniProtKB P23977
- procedureText: Inhibition of high-affinity uptake of [3H]dopamine at dopamine transporter into rat striatal nerve endings (synaptosomes)
- Format: subcellular, Brain
For each record, write down the corresponding pIC50.
Notebook: values listed as pIC50 are -log10 of the concentration (mol/L).

Prompt: Tell me the measured pIC50 of CN1CC[C@H](c2ccc(Cl)cc2)C(CO)C1 (single isomer, unassigned; (-)-5) , please.
Completion: 7.31

Prompt: Tell me the measured pIC50 of COC(=O)C1CN(C)CC[C@H]1c1ccc(Cl)cc1 (single isomer, unassigned) , please.
Completion: 5.29

Prompt: Tell me the measured pIC50 of CCCC1CN(C)CC[C@@H]1c1ccc(Cl)cc1 (single isomer, unassigned) , please.
Completion: 7.63

Prompt: Tell me the measured pIC50 of CN1CC[C@H](c2ccc(Cl)cc2)C(CO)C1 (single isomer, unassigned; (+)-13) , please.
Completion: 6.17

Prompt: Tell me the measured pIC50 of CC(=O)OCC1CN(C)CC[C@H]1c1ccc(Cl)cc1 (stereo partly specified) , please.
Completion: 5.69

Prompt: Tell me the measured pIC50 of COC(=O)[C@H]1CN(C)CC[C@H]1c1ccc(Cl)cc1 , please.
Completion: 6.71

// provenance: ChEMBL document CHEMBL1131237
